# protocol description: Phage titer assay of phage binding to hair
# Set-up: species or system human
# test context: phage-displayed peptide; six gray hair strands; relative to HP2-TonB-Gray3 = 100
readout label: Phage Titer (%) relative to the activity of HP2-TonB-Gray3
Enter your answer as a number in %; do not include the unit.

* HP2-TonB-HP2: hair-binding domain, SEQ ID NO: 91 (peptide) PSAQSQLPDKHSGLHERAPQRYGPEPEPEPEPIPEPPKEAPVVIEKPKPKPKPKPKPPAAQSQLPDKHSGLHERAPQRYGS | 55

We now examine a further molecule.
Fill in: Phage Titer (%) relative to the activity of HP2-TonB-Gray3 of HP2-TonB-Gray3: hair-binding domain, SEQ ID NO: 85, also found in peptide HC353 (peptide) PSAQSQLPDKHSGLHERAPQRYGPEPEPEPEPIPEPPKEAPVVIEKPKPKPKPKPKPPAHDHKNQKETHQRHAAGS is ___
100

Data provenance is patent US9278138B2.
